Tested on: newly emerged larvae of Lucilia sericata, blowfly
runDescription: Efficacy against blowfly larvae, treated paper/serum bioassay
Format: in vivo
setupConditions: Conc. 2.0 ppm; 48 h; blowfly larvae
Method: Evaluation of Efficacy of Test Compounds Against Blowfly Larvae The efficacy of a test compound against newly emerged larvae of Lucilia sericata, blowfly, is evaluated using a treated paper/serum bioassay. In this evaluation, a solution of test compound in acetone is applied to a filter paper disc and the disc is allowed to dry. Bovine serum and about 20 newly emerged blowfly larvae are added to the treated paper disc and the mortality is assessed at 24 h and 48 h. The data are averaged.
quantity: % Mortality 48 h (%)
Numbers only, in %.

Here is how some molecules turned out for % Mortality 48 h.
Briefly, % Mortality 48 h measured for N#Cc1c(C2CC2)nn(-c2c(Cl)cc(C(F)(F)F)cc2Cl)c1Cl : 0

Briefly, % Mortality 48 h measured for CC1(c2nn(-c3c(Cl)cc(C(F)(F)F)cc3Cl)c(Br)c2C#N)CC1(Br)Br (stereo not shown) : 100

Briefly, % Mortality 48 h measured for CCN(CC)c1c(C#N)c(C2(C)CC2(Cl)Cl)nn1-c1c(Cl)cc(C(F)(F)F)cc1Cl (stereo not shown) : 90

Now consider a different molecule.
Briefly, % Mortality 48 h measured for COC=Nc1c(C#N)c(C2(C)CC2(Cl)Cl)nn1-c1c(Cl)cc(C(F)(F)F)cc1Cl (stereo not shown) : 0
